Each recorded value in this set is attributed to the supplement of paper PMC4466140.

target-of-assay: SpHse1
test-name: SPOT peptide array binding signal intensity (averaged, normalized) (arbitrary units (background-subtracted, floor 0; scale differs between SH3 domains)); higher = stronger binding of the SH3 domain to the peptide
Reported SPOT peptide array binding signal intensity by item:
parameter: SPOT peptide array binding signal intensity

INSERT INTO assay_data (binder, comparison_symbol, test_value) VALUES
  ('GKFIPSRPAPKPPSS', '=', 180),
  ('VNIPSPSSSPPPIPK', '=', 43),
  ('LYKRKPILLPDPKPL', '=', 4),
  ('STKKPRPPVKSKPKH', '=', 44.5),
  ('KLSRGRYGLPLSSRP', '=', 150),
  ('GTIARPLFLVVLFFI', '=', 1630),
  ('VATSTSPKLPPRGKQ', '=', 0.5),
  ('NNQRRKPLLLNIGDH', '=', 1730),
  ('LKQRFFLMFPKSIIW', '=', 972),
  ('RNNRPVPPPPPMRTT', '=', 52),
  ('RVTRKRPREPKSTND', '=', 298),
  ('FIRKRAPTPPAPSRS', '=', 377),
  ('VPPVPLPFGIPPFPM', '=', 70.8),
  ('QRIRKIPGIPLMSVG', '=', 242),
  ('IKTRSVPKIPSIESV', '≤', 0),
  ('GLRRARYKFPGQQKI', '=', 268),
  ('TSIEIPKRSPLRFTS', '=', 76.8),
  ('RRSKSLPTTPGIRSG', '=', 356),
  ('QTMRQAPKRPDADVA', '=', 240),
  ('HAPPLPPTAPPPPSL', '≤', 0),
  ('QRKSLRRPTLSKPAV', '=', 140),
  ('LLGRKRPVMERVVDI', '=', 470),
  ('KDKKTKPTPPPKPSH', '=', 9.25),
  ('QPPLPSSAPPIPTSH', '=', 17.5),
  ('DLPLPDLPPEPPTEL', '≤', 0),
  ('PVLPPPRSPNRPTLS', '=', 108),
  ('YLTRPLPSTPNEDSR', '=', 1.75),
  ('TTNRGPPPLPPRANV', '≤', 0),
  ('NRLRKRLNLPSEISI', '=', 2460),
  ('FPPKRKPLLRPQRSD', '=', 326);
